experiment: gradient 5% acetonitrile 3 min, to 50% in 2 min, to 85% in 15 min, held 3 min, 100 µL/min; conditions: column: Zorbax Extend-C18 2.1 x 50 mm; eluents: water / acetonitrile, 0.1% formic acid
measure: RP-LC retention time (s)
Kindly provide the numeric value in s only, without the unit symbol.

These solved cases illustrate the format of a correct answer.
Which RP-LC retention time value is on record for CC(C)(C)c1ccc(C(=O)Nc2nc3ccccc3[nH]2)cc1 ?
778

What would you report for CCCc1noc(-c2ccnc(-n3cnc(C(=O)NC(C)C)c3)c2)n1 ?
849

// next record O=C(Nc1cccc(Cl)c1)Nc1nccn(-c2ccc3c(c2)CCC3)c1=O
1170

Okay, and O=C(Nc1ccc2nncn2c1)Nc1ccc(F)cc1F ?
680

Another: CCOc1ccccc1NC(=O)N1CCCC1c1cc(C)no1 (stereo not given)
854

What do we get for Cc1ccc(NC(=O)N2CCC(n3c(-c4ccoc4)nc4cccnc43)C2)cc1C (stereo not given) ?
762

Moving on to the next molecule: COc1ccc(-c2nc(NCCN3CCC(C)CC3)c3ccccc3n2)cc1
580

Can you check COc1cccc(N2C(=O)c3ccccc3C2C(=O)NC2CCCC2)c1 (stereo not given) next?
775

What do you have for COc1ccccc1-n1ccn2cc(-c3ccc4c(c3)OCO4)nc2c1=O ?
776

Alright, here's another molecule for you.
GET /values?readout=RP-LC retention time&item= Cc1cc(C(N)=O)c2cccc(Cl)c2n1
621

====

A collection of compounds and their measured RP-LC retention time
experiment: gradient 5% acetonitrile 3 min, to 50% in 2 min, to 85% in 15 min, held 3 min, 100 µL/min; conditions: column: Zorbax Extend-C18 2.1 x 50 mm; eluents: water / acetonitrile, 0.1% formic acid
Please reply with the bare figure in s and do not write the unit itself.

Take a look at these entries with their results.
Suppose we examine the compound CCCSCCCNC(=O)c1cc2n(n1)CCCN(Cc1ccc(C)cc1)C2=O ; what RP-LC retention time value has been reported?
852

Thanks! And CCOC(=O)CC(NC(=O)N1CCC2(CC1)NC(=O)c1ccccc1O2)c1ccccc1 (centres undefined) ?
782

Now the same for Cc1ccc(Cl)c(NC(=O)c2[nH]c3cc(C)sc3c2CN2CCOCC2)c1
724

Further, for CCOC(=O)C(C)Oc1cccc2c(=O)n(CC(=O)Nc3ccc([N+](=O)[O-])cc3)ccc12 (centres undefined) ?
842

Now consider CSc1cccc(NC(=O)Cn2c(N3CCOCC3)nc(C)cc2=O)c1 .
694

***
Could you tell me which RP-LC retention time is on file for Cc1cc(=O)n(CC(=O)Nc2ccccc2)c(-c2ccccc2)n1 ?
964

Same again, this time with Cc1ccc(Cl)cc1NC(=O)CN1CCN(c2ccc(F)cc2)CC1
658

// query: COc1cc(-c2noc(Cn3nc(-c4ccc(Br)cc4)ccc3=O)n2)cc(OC)c1OC
1020

Try CCOc1cccc(CNc2c(C(=O)OC)c(=O)[nH]c3c(Cl)cccc23)c1 next.
873

// query: Cc1ccc2nc(-c3ccc(C)c(NC(=O)C(C)(C)C)c3)[nH]c2c1
680

Similarly, CN1C(=O)c2ccccc2Sc2ccc(NC(=O)N3CCN(c4ccccn4)CC3)cc21 ?
645

Record: O=C(Nc1ccc(C2(C(=O)NCc3ccc(F)c(Cl)c3)CCC2)cc1)C1CC1
903

Cc1ccc(C)c(-n2ncc3c(N4CCN(C)CC4)ncnc32)c1 ?
614

Queued: Cc1ccc(OCC(O)CN2CCN(CC(O)COC(C)C)CC2)c(C(C)(C)C)c1 (centres undefined)
607

====

experiment: gradient 5% acetonitrile 3 min, to 50% in 2 min, to 85% in 15 min, held 3 min, 100 µL/min; conditions: column: Zorbax Extend-C18 2.1 x 50 mm; eluents: water / acetonitrile, 0.1% formic acid
Entries and their measured RP-LC retention time follow.
Report the value in s with no unit label.

# query: RP-LC retention time of entry Cc1ccoc1C(=O)N[C@@H]1CN(c2ncccn2)C[C@H]1CO
588

Would you kindly repeat that for CCc1nc(-c2csc(S(=O)(=O)N3CCCC(C(=O)Nc4ccc(F)cc4)C3)c2)no1 (stereo not given) ?
1030

For O=C(Nc1cccc(F)c1)C1CCCN(c2nc3ccccc3nc2C(F)(F)F)C1 (stereo not given) then?
1210

What do we get for C[C@](O)(COc1ccc(C#N)cc1)C(=O)Nc1ccc(C#N)c(C(F)(F)F)c1 ?
972

Next up: COCC(C)NS(=O)(=O)c1c(C)[nH]c(=O)[nH]c1=O (stereo not given)
570

***
Consider the molecule shown here: CCC(C)NC(=O)CCNc1c(-c2ccc(C)cc2)nc2cnccn12 (stereo not given) What is its recorded RP-LC retention time?
672

Please do the same for Cc1cc2c(N3CCCC(C(=O)NCc4ccc(N5CCOCC5)cc4)C3)nccc2s1 (stereo not given) as well.
711

====

test: gradient 5% acetonitrile 3 min, to 50% in 2 min, to 85% in 15 min, held 3 min, 100 µL/min; details: column: Zorbax Extend-C18 2.1 x 50 mm; eluents: water / acetonitrile, 0.1% formic acid
RP-LC retention time of 700 s or higher: satisfied. Under 700 s: not satisfied.

Can COC(=O)c1ccc(-c2csc(NC(=O)c3cc(C)no3)n2)cc1 be said to have RP-LC retention time at or above 700 s?
satisfied

Lookup O=C(NCCCN1CCOCC1)C1CCN(c2nc3cccnc3s2)CC1
not satisfied

What would you report for CCNC(=O)c1nc2ccccc2n(CC)c1=O ?
not satisfied

====

test: gradient 5% acetonitrile 3 min, to 50% in 2 min, to 85% in 15 min, held 3 min, 100 µL/min; conditions: column: Zorbax Extend-C18 2.1 x 50 mm; eluents: water / acetonitrile, 0.1% formic acid
I would appreciate it if you labelled entries Y when RP-LC retention time is 700 s or higher, otherwise N.

Solved entries (count: 6):
Can COc1ccc(OC)c(S(=O)(=O)NCC(O)Cc2ccccc2)c1 (centres undefined) be said to have RP-LC retention time at or above 700 s?
Y

Param item: CCN1CCN(C(=O)c2cnn(-c3cc(-c4nc(C5CC5)no4)ccn3)c2C)CC1
N

Repeat for the following compound: Cc1ccccc1S(=O)(=O)N1CCC(C(=O)NCCc2csc(-c3cccs3)n2)CC1
Y

# iterate: CC(=O)c1cccc(N2C(=O)COc3ccc(Br)cc3C2C(=O)NC2CCCC2)c1 (centres undefined)
Y

Field entry: N#Cc1nc(-c2cccs2)oc1N1CCN(C(=O)c2ccco2)CC1
Y

Moving on to the next compound: COc1cc(CC(=O)N2CCN(c3cc(C(C)C)n4cnnc4n3)CC2)cc(OC)c1
N

New cases:
hey, is RP-LC retention time for this one >= 700 s? Cc1ccc(-c2nc(N)n(C(=O)c3ccc(C(C)(C)C)cc3)n2)cc1C
Y

# repeat for Cc1ccc(Cl)cc1NC(=O)c1cc2ccccc2cc1O
Y

====

assay: gradient 5% acetonitrile 3 min, to 50% in 2 min, to 85% in 15 min, held 3 min, 100 µL/min; settings: column: Zorbax Extend-C18 2.1 x 50 mm; eluents: water / acetonitrile, 0.1% formic acid
Criterion: RP-LC retention time strictly less than 800 s. Met: yes (1). Not met: no (0).

RP-LC retention time strictly < 800 s for this molecule? O=C(NCCc1ccncc1)C1CN(C(=O)c2cccs2)CC12CCCCC2 (stereo not given)
yes (1)

***
Decide: RP-LC retention time of CC(NC(=O)Cn1c(C(F)(F)F)nc2ccccc21)c1ccc2c(c1)OCCCO2 (stereo not given) strictly below 800 s?
no (0)

# iterate: Fc1ccc(F)c(CN2CCCCC2c2nc(-c3cnccn3)no2)c1 (stereo not given)
no (0)

Record: Cc1ccc(-c2nc3cnccn3c2NCCC(=O)NCC2CC2)cc1
yes (1)

Then this molecule: O=c1c2nc(-c3ccccc3)cn2ccn1-c1ccc(F)cc1
yes (1)

Same again, this time with CNC(=O)c1cc(N2CCCC2)nc2c(C)cccc12
yes (1)

Queued: COC(=O)c1c(C)[nH]c(C(=O)N2CCC(CC(=O)NCc3ccc4c(c3)OCO4)CC2)c1C
yes (1)

And the next one, COc1ccc2c(c1)C1(CCN(C(=O)c3ccccc3OC)C1)C(=O)N2 (stereo not given) ?
yes (1)

Try this molecule too: Cc1ccc(-c2noc(-c3cccc(S(=O)(=O)NCc4ccccc4)c3)n2)cc1
no (0)

For Cc1cccc(OCc2nc(-c3ccc4nnn(C)c4c3)no2)c1 then?
no (0)

Consider next the molecule COc1cccc2sc(N3CCN(C(=O)C4CCN(S(C)(=O)=O)CC4)CC3)nc12 in the same way.
yes (1)

Do the same for Cn1cnc([N+](=O)[O-])c1Sc1nnnn1-c1ccccc1 please
yes (1)

Repeat for the following molecule: CC1(C(=O)NC2CCCC2)Cn2cnc(C(=O)NCc3cccc(F)c3)c2C(=O)N1C1CC1 (stereo not given)
yes (1)
